experimental target: Trehalose-phosphatase (Brugia malayi)
Sequence (A8NS89 whole entry): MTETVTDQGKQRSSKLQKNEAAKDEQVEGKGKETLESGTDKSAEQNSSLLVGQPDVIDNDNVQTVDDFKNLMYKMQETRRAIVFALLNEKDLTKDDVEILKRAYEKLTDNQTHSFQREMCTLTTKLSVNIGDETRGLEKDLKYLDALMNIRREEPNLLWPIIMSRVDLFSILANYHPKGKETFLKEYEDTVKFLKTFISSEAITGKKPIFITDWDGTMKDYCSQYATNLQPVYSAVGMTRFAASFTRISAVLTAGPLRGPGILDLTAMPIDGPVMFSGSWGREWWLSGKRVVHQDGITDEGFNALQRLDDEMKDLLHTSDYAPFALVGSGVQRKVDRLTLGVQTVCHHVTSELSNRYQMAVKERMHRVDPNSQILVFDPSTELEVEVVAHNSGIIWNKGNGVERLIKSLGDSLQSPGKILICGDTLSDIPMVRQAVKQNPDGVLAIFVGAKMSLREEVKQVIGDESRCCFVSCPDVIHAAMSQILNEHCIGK
experiment summary: Competitive inhibition of Brugia malayi T6PP using T6P as substrate by Lineweaver-Burk plot analysis

molecule	value prefix	Ki (µM)
O=S(=O)(O)OC[C@H]1O[C@H](OCc2ccccc2)[C@H](O)[C@@H](O)[C@@H]1O	=	160
O=S(=O)(O)OC[C@H]1O[C@H](O[C@H]2O[C@H](CO)[C@@H](O)[C@H](O)[C@H]2O)[C@H](O)[C@@H](O)[C@@H]1O	=	80
CCCCCCc1ccc(O[C@@H]2O[C@H](COS(=O)(=O)O)[C@@H](O)[C@H](O)[C@H]2O)cc1	=	200
OC[C@H]1O[C@H](O[C@H]2O[C@H](CO)[C@@H](O)[C@H](O)[C@H]2O)[C@H](O)[C@@H](O)[C@@H]1O [TREHALOSE]	>	10000
CCCCCCCCc1ccc(O[C@H]2O[C@H](COS(=O)(=O)O)[C@@H](O)[C@H](O)[C@H]2O)cc1	=	5.3

---

Test system: Shigella boydii
experiment summary: Inhibition of Shigella boydii T6PP using T6P as substrate assessed as fraction of enzyme unbound with compound by measuring ratio of initial velocities of T6P substrate hydrolysis in presence and absence of compound at 1 mM after 5 mins by BioMol green dye based HTS assay
readout: Ratio

compound	readout	value reported
O=Cc1cccc(O[C@@H]2O[C@H](COS(=O)(=O)O)[C@@H](O)[C@H](O)[C@H]2O)c1	Ratio	0.81
O=S(=O)(O)OC[C@H]1O[C@@H](n2cc(-c3ccccc3)nn2)[C@H](O)[C@@H](O)[C@@H]1O	Ratio	0.9
O=Cc1ccc(O[C@@H]2O[C@H](COS(=O)(=O)O)[C@@H](O)[C@H](O)[C@H]2O)cc1	Ratio	1.06
O=S(=O)(O)OC[C@H]1O[C@@H](Oc2ccc(CO)cc2)[C@H](O)[C@@H](O)[C@@H]1O	Ratio	0.67
O=S(=O)(O)OCc1cccc(O[C@@H]2O[C@H](CO)[C@@H](O)[C@H](O)[C@H]2O)c1	Ratio	0.8
O=P(O)(O)OC[C@H]1O[C@@H](Oc2ccccc2)[C@H](O)[C@@H](O)[C@@H]1O	Ratio	0.94
O=S(=O)(O)OC[C@H]1O[C@H](O)[C@H](O)[C@@H](O)[C@@H]1O	Ratio	0.75
CO[C@H]1O[C@H](COS(=O)(=O)O)[C@@H](O)[C@H](O)[C@H]1O	Ratio	1
CO[C@H]1O[C@H](COS(=O)(=O)O)[C@@H](OCc2ccccc2)[C@H](O)[C@H]1O	Ratio	0.95
CC(=O)Nc1ccc(O[C@@H]2O[C@H](COS(=O)(=O)O)[C@@H](O)[C@H](O)[C@H]2O)cc1	Ratio	0.88
Nc1ccc(O[C@@H]2O[C@H](COS(=O)(=O)O)[C@@H](O)[C@H](O)[C@H]2O)cc1	Ratio	1.03
O=[N+]([O-])c1ccc(O[C@@H]2O[C@H](COS(=O)(=O)O)[C@@H](O)[C@H](O)[C@H]2O)cc1	Ratio	0.77
O=S(=O)(O)OC[C@H]1O[C@@H](Oc2cccc3ccccc23)[C@H](O)[C@@H](O)[C@@H]1O	Ratio	0.85
OC[C@H]1O[C@@H](NC(=S)Nc2ccccc2)[C@H](O)[C@@H](O)[C@@H]1O	Ratio	0.92
CO[C@H]1O[C@H](COS(=O)(=O)O)[C@@H](O)[C@H](OCc2ccccc2)[C@H]1O	Ratio	0.84
OC[C@H]1O[C@H](O[C@H]2O[C@H](CO)[C@@H](O)[C@H](O)[C@H]2O)[C@H](O)[C@@H](O)[C@@H]1O [TREHALOSE]	Ratio	1.01
O=S(=O)(O)OC[C@H]1O[C@@H](Oc2ccccc2CO)[C@H](O)[C@@H](O)[C@@H]1O	Ratio	0.85
